Assay: Plasma peptide concentrations by LC-MS after continuous infusion
Type: in vivo, mouse
Conditions: mouse, plasma, 2.0 mg/ml in the osmopump, four weeks infusion, read-out: plasma levels of GLP-1(28-36)amide in mice infused with GLP-1(28-36)amide
Where no end group is shown, it is not given here.
value.kind: level at time molar at 672 h

substance	value.kind	observed.measurement
FIAWLVKGR-NH2 [GLP-1(28-36)amide, FIAWLVKGRamide]	level at time molar at 672 h	~0.24 nM
